Ref: patent US11813306B2

Biological target: human PCSK9 (Homo sapiens)
Sequence (Q8NBP7 153-692): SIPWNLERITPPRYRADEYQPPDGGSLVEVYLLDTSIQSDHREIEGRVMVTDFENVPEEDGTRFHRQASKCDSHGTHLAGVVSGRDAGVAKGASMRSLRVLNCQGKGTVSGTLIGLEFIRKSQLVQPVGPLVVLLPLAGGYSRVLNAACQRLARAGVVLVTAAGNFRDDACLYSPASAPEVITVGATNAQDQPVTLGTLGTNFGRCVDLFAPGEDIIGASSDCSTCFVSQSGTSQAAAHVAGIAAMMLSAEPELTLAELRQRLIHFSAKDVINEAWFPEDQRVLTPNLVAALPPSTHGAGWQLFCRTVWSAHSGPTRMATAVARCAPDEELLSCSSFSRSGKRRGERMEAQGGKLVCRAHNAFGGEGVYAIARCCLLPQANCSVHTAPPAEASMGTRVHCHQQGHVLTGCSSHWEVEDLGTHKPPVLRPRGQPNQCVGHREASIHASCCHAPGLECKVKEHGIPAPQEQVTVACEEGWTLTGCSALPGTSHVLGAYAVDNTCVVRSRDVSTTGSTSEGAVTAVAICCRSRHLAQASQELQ
Sequence (Q8NBP7 31-152 partner limits assumed): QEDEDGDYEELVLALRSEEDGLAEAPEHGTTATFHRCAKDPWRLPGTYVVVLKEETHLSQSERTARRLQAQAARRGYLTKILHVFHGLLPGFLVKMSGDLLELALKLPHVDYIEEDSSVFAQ
Test: PCSK9 ligand binding assay (TR-FRET): interference with binding of human PCSK9 to human LDLR
Conditions: Human PCSK9 Alexa Fluor 647 / Human LDLR extracellular domain-Europium Kryptate
Experimental: Example 10: PCSK9 Ligand Binding Assay The PCSK9 binding of the compounds of the disclosure were measured using a time resolved fluorescence resonance energy transfer (TR-FRET) assay. This time resolved fluorescence resonance energy transfer (TR-FRET) assay measures the ability of a compound of the present disclosure to interfere with the binding of human PCSK9 to human LDLR, providing measures of both potency (IC50) and efficacy (Amax). Human PCSK9 Alexa Fluor 647 […]
pIC50: −log10 of the molar value.
Value kind: pIC50

[[record]]
molecule = "Cc1c(CN(C)C)ncn1-c1ccc(Oc2cc(Cl)ccc2CN2C(=O)C[C@@H]([C@@H]3CCc4ccccc43)C(=O)N3CCC[C@@](Cc4ccc(Cl)cc4)(C3)NC(=O)[C@H](CO)NC(=O)[C@@H]2C)cc1 [Compound 7]"
system = "human PCSK9 (Homo sapiens)"
reported_measurement = 9.40

[[record]]
molecule = "C[C@H]1C(=O)N[C@@H](CO)C(=O)N[C@@]2(Cc3ccc(Cl)cc3)CCCN(C2)C(=O)[C@H](Cc2ccccc2)OC(=O)N1Cc1ccc(Cl)cc1Oc1ccc(-c2cnc(CN(C)C)n2C)cc1.Cl [Compound 78, hydrochloride]"
system = "human PCSK9 (Homo sapiens)"
reported_measurement = 9.07

[[record]]
molecule = "C[C@H]1C(=O)N[C@@H](CO)C(=O)N[C@@]2(Cc3ccc(Cl)cc3)CCCN(C2)C(=O)[C@H]([C@@H]2CCc3ccccc32)CC(=O)N1Cc1ccc(Oc2ccc(-c3cnc(CN(C)C)n3C)cc2)cc1F [Compound 123]"
system = "human PCSK9 (Homo sapiens)"
reported_measurement = 6.46

[[record]]
molecule = "C[C@H]1C(=O)N[C@@H](CO)C(=O)N[C@@]2(Cc3ccc(Cl)cc3)CCCN(C2)C(=O)[C@H](Cc2ccccc2)CC(=O)N1Cc1ccc(Cl)cc1Oc1ccc(-c2cnc(CN(C)C)n2C)cc1 [Compound 50]"
system = "human PCSK9 (Homo sapiens)"
reported_measurement = 9.29

